- Method: Primary qHTS for small molecule stabilizers of the endoplasmic reticulum resident proteome: Secreted ER Calcium Modulated Protein (SERCaMP) assay (AID 1508630); note: % is set by controls: 0 for no effect and ±100 for the full control effect
- Conditions: SH-SY5Y GLuc-SERCaMP (Gaussia luciferase released on ER calcium loss) secretion, thapsigargin, luminescence; series mostly up to 38.4 µM
Inconclusive results are not listed. Activity calls are given as the source filed them. Calls come from the whole dose curve; as a rule, active = well fitted inhibition curve with a large enough effect; inconclusive = small, poorly fitted or top-dose-only effect; inactive = no such curve, though single readings can be large or run the other way.
Quantity name: outcome

Check out these entries, answers already filled in.
[[record]]
molecule = "N#Cc1cccc(NC(=O)N2CCCC3(CCN(C(=O)c4cc(C(F)(F)F)cc(C(F)(F)F)c4)CC3)C2)c1"
result = "inactive"

[[record]]
molecule = "O=C(Oc1ccccc1)N1CCC[C@@]2(CCN(c3ccccc3)C2)C1"
result = "inactive"

[[record]]
molecule = "CN(Cc1ccco1)c1cc(-c2cccnc2)ncn1"
result = "inactive"

[[record]]
molecule = "CC(C)CN1CCC2(CC1)CCN(S(=O)(=O)c1ccccc1)CC2"
result = "inactive"


Input O=c1c(-c2ccc(Cl)cc2)nc2cnc(N3CCOCC3)nc2n1C1CC1 , output reported outcome.
inactive

Input CCNc1ncc2nc(-c3ccc(OC)cc3)c(=O)n(CCc3ccccc3)c2n1 , output reported outcome.
inactive

Input Cc1noc(C)c1-c1nc(N(C)Cc2ccco2)c2ccccc2n1 , output reported outcome.
inactive

* * *

- Method: qHTS assay for cell viability of the p53RE-bla HCT-116 cell line (AID 743292); note: % is set by controls: 0 for no effect and ±100 for the full control effect; nearly all actives have a fitted effect of over 55% in size
- Conditions: p53RE-bla HCT-116 viability, ATP luminescence, 16 h; series mostly up to 95 µM
Results filed as inconclusive are left out. Calls of active or inactive are those of the source. The call rests on the fitted dose curve; in most records, active means well fitted cell-killing curve with a large enough effect; inconclusive means small, poorly fitted or top-dose-only effect, or effect the other way; inactive means flat fitted curve, though single readings scatter.
Quantity name: outcome

Check out these entries, answers already filled in.
[[record]]
compound = "C=CC(C)(O)CCC=C(C)C (stereo not given)"
quantity_name = "outcome"
result = "inactive"

[[record]]
compound = "Cc1occc(=O)c1O"
quantity_name = "outcome"
result = "inactive"

[[record]]
compound = "CN(C)CCOC(c1ccccc1)c1ccccc1 (tested in a mixture with another compound)"
quantity_name = "outcome"
result = "inactive"

[[record]]
compound = "COS(C)(=O)=O"
quantity_name = "outcome"
result = "inactive"


Now look at this entry.
Input CC1=CC(=O)CC(C)(C)C1(O)/C=C/C(C)=C\C(=O)O (stereo not given) , output reported outcome.
inactive

* * *

- Method: qHTS Assay for Lipid Storage Modulators (AID 1519); note: % is set by controls: 0 for no effect and ±100 for the full control effect
- Conditions: Drosophila S3 cells, BODIPY lipid droplet/cell ratio, laser cytometry; at 57.5 µM (top of the series); cells loaded with oleic acid
Inconclusive results are not listed.
Quantity name: activity change, negative = inhibition (%)
Value expressed in %; do not type the unit.

Check out these entries, answers already filled in.
[[record]]
molecule = "N#Cc1ccc(CN2CC[C@@]3(CCCN(C(=O)c4cnccn4)C3)C2)cc1"
quantitative_result = 2.06

[[record]]
molecule = "COc1ccc(C(=O)N2CCC3(CCN(C(=O)Nc4cccc(F)c4)CC3)CC2)cc1"
quantitative_result = 6.16

[[record]]
molecule = "COc1ccccc1CN1CCC2(CC1)CCN(C(=O)c1ccncc1)CC2"
quantitative_result = -0.0628

[[record]]
molecule = "O=C(c1cnccn1)N1CCC2(CCN(Cc3cc(C(F)(F)F)cc(C(F)(F)F)c3)CC2)CC1"
quantitative_result = 2.5

[[record]]
molecule = "O=C(O)c1cc(O)c2c(c1)C(=O)c1cc(O)cc(O)c1C2=O"
quantitative_result = 8.22

[[record]]
molecule = "COCC(=O)N1CCC2(CCCN(c3ccccc3)C2)CC1"
quantitative_result = 0.354


Input O=S(=O)(c1ccccc1)N1CCC[C@@]2(CCN(Cc3cc(C(F)(F)F)cc(C(F)(F)F)c3)C2)C1 , output reported activity change, negative = inhibition.
4.5

Input c1ccc2c(N3CCNCC3)nc(-c3ccoc3)nc2c1 , output reported activity change, negative = inhibition.
8.78

Input CC(C)CN1CCC2(CC1)CCN(C(=O)c1cnccn1)CC2 , output reported activity change, negative = inhibition.
-2.81

Input COc1ccc2ccc(=O)oc2c1 , output reported activity change, negative = inhibition.
7.71

Input CN(C)C(=O)c1ccc(-c2nc(NCc3ccccc3)c3ccccc3n2)cc1 , output reported activity change, negative = inhibition.
10.9

Input CCOC(=O)c1c(C)cc(OC)cc1O , output reported activity change, negative = inhibition.
-10.6

Input O=C(c1cnccn1)N1CCC2(CC1)CN(c1ncccn1)C2 , output reported activity change, negative = inhibition.
6.01

Input CC(=O)NCCNc1ncncc1-c1ccccc1C(F)(F)F , output reported activity change, negative = inhibition.
-1.77

* * *

Catalogue of activity change, negative = inhibition values
- Method: qHTS Assay for Lipid Storage Modulators (AID 1519); note: % is set by controls: 0 for no effect and ±100 for the full control effect
- Conditions: Drosophila S3 cells, BODIPY lipid droplet/cell ratio, laser cytometry; at 57.5 µM (top of the series); cells loaded with oleic acid
Results filed as inconclusive are left out.
Value expressed in %; do not type the unit.

Check out these entries, answers already filled in.
[[record]]
smiles_notation = "Clc1cccc2c1CN(C1=NCCN1)C2"
quantitative_result = 3.4

[[record]]
smiles_notation = "O=c1c(-c2cccs2)nc2cnc(N3CCNCC3)nc2n1C1CC1"
quantitative_result = 1.95

[[record]]
smiles_notation = "COCC(=O)N1CCC2(CCCN(C(c3ccccc3)c3ccccc3)C2)CC1"
quantitative_result = -0.272

[[record]]
smiles_notation = "CC(=O)N1CCC[C@@]2(CCN(Cc3ccc(C#N)cc3)C2)C1"
quantitative_result = 2.62

[[record]]
smiles_notation = "Cn1cccc1C(=O)N1CCC[C@@]2(CCN(C(=O)Nc3cccc(F)c3)C2)C1"
quantitative_result = 4.9

[[record]]
smiles_notation = "CCNc1ncc2ncc(=O)n(C)c2n1"
quantitative_result = 5.71

[[record]]
smiles_notation = "COc1ccc(NC(=O)N2CCC3(CC2)CCN(C(=O)c2cc(C(F)(F)F)cc(C(F)(F)F)c2)CC3)cc1"
quantitative_result = -8

[[record]]
smiles_notation = "Cc1ccccc1-c1nc(NCc2cccnc2)c2ccccc2n1"
quantitative_result = 1.87

[[record]]
smiles_notation = "Cc1nc2cnc(N3CCN(C)CC3)nc2n(C2CC2)c1=O"
quantitative_result = 3.22

[[record]]
smiles_notation = "COc1cc(C/C=C/c2ccccc2)c(OC)cc1O"
quantitative_result = 1.85


Now look at this entry.
Input Cc1noc(C)c1-c1ccc2ncnc(NC3CC3)c2c1 , output reported activity change, negative = inhibition.
-8.16

* * *

- Target or system: Dual specificity protein kinase CLK4 (Homo sapiens)
- Method: qHTS Assay for Inhibitors of CDC-like Kinase 4 (Kinase-Glo Assay) (AID 1770); note: nearly all actives have a fitted effect of over 65% in size
- Conditions: recombinant Clk4, Kinase-Glo ATP depletion luminescence; series mostly up to 66.7 µM
- From the text: NIH Molecular Libraries Probe Production Centers Network [MLPCN] NIH Chemical Genomics Center [NCGC] […] Following the Clk4 reaction, the remaining ATP levels were detected using Promega Kinase-Glo technology wherein the remaining ATP from the kinase reaction is detected using Ultra-Glo luciferase and D-luciferin which generates a bioluminescence signal from the ATP. […]
Results filed as inconclusive are left out. Calls of active or inactive are those of the source. The call rests on the fitted dose curve; in most records, active means well fitted inhibition curve with a large enough effect; inconclusive means small, poorly fitted or top-dose-only effect; inactive means flat fitted curve, though single readings scatter.
Please answer using one outcome listed in true (1) = active, false (0) = inactive

[[record]]
smiles_notation = "Cc1noc(C)c1-c1nccc(NCc2cccs2)n1"
category = "true (1)"

[[record]]
smiles_notation = "c1cncc(-c2nccc(NCc3cccs3)n2)c1"
category = "true (1)"

[[record]]
smiles_notation = "Cc1nc2cnc(N(C)C)nc2n(-c2ccccc2)c1=O"
category = "false (0)"

[[record]]
smiles_notation = "COCCn1c(=O)c(-c2ccc(Cl)cc2)nc2cnc(N3CCNCC3)nc21"
category = "false (0)"

[[record]]
smiles_notation = "CN(C)c1ncnc2ccc(-c3ccc4c(c3)OCO4)cc12"
category = "true (1)"


Recorded test call requested for CN1CCN(c2ncc3nc(-c4ccccc4)c(=O)n(C4CC4)c3n2)CC1
false (0)

Recorded test call requested for CCNc1ncc2nc(-c3cc(F)cc(F)c3)c(=O)n(C3CC3)c2n1
false (0)

Recorded test call requested for COc1ccc(Nc2ncc3nc(-c4cccs4)c(=O)n(Cc4cccc(OC)c4)c3n2)cc1
false (0)

Recorded test call requested for CS(=O)(=O)Nc1cccc(-c2cc(NCc3cccs3)ncn2)c1
true (1)

Recorded test call requested for N#Cc1cccc(-c2ccc3ncnc(NCCN4CCOCC4)c3c2)c1
true (1)

Recorded test call requested for COc1cccc(Cn2c(=O)c(CCc3ccccc3)nc3cnc(N4CCNCC4)nc32)c1
false (0)

Recorded test call requested for CN1CCN(c2ncc3nc(-c4cn(C)c5ccccc45)c(=O)n(-c4ccccc4)c3n2)CC1
false (0)

* * *

- Target or system: Lysosomal acid glucosylceramidase (Homo sapiens) (UniProt P04062)
- Sequence (P04062 whole entry, looked up): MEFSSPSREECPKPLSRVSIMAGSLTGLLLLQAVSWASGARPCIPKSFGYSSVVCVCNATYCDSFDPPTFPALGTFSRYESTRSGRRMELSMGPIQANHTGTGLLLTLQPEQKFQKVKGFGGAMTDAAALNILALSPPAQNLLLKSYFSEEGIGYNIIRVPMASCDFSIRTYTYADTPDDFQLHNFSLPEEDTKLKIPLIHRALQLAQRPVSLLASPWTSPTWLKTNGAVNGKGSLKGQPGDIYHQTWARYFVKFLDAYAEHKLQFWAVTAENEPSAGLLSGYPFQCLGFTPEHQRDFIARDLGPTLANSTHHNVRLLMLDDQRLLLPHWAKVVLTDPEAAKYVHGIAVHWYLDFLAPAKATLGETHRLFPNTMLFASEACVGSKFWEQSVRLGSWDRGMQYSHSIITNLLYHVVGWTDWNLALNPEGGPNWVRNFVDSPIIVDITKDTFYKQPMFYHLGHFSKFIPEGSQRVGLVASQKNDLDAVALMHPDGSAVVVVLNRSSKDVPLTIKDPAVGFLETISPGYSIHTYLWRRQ
- Method: Glucocerebrosidase-p2 (AID 348); note: potency is the fitted concentration of half-maximal effect
- Conditions: purified GBA, blue fluorogenic substrate, 40 min
- Excerpt: Beta-glucocerebrosidase catalyzes the hydrolysis of beta-glucocerebroside to glucose and ceramide. The inherited deficiency of beta-glucocerebrosidase results in Gaucher disease, which is characterized by a wide variety of symptoms including hepatosplenomegaly, anemia, thrombocytopenia, bony lesions and bone marrow infiltration with characteristic storage cells, known as Gaucher cells. […] Blue fluorescence substrate assay: […] Read the plate in Viewlux plate reader (Ex=365(10) and Em=440(10)).
Activity calls are given as the source filed them. No stated cut-off is given here; in the data, active means potency below about 10 µM; inactive means the rest.
Please answer using one outcome listed in active, inactive

Recorded test call requested for O=C(c1cnccn1)N1CCC2(CCCN(Cc3ccccc3)C2)CC1
inactive

Recorded test call requested for COc1ccc2[nH]cc(CCNc3ccnc(-c4cccnc4)n3)c2c1
inactive

Recorded test call requested for O=c1c(-c2cc(F)cc(F)c2)nc2cnc(N3CCNCC3)nc2n1Cc1ccc(F)cc1
inactive
